So I've got a bunch of binders here, and I need their B7-H2 Binding (specific binding activity as percentage of ICOSIg) values.
- assay-system: T1, B7-H2mIg (extracellular domain of human B7-H2 linked to mouse IgG2a) (human; mouse, UniProt O75144 19-256)
- T1 construct: extracellular domain; also called B7-H2Ig (mouse Ig); B7-H2Ig; not shown: mouse IgG2a
- T1 sequence (looked up): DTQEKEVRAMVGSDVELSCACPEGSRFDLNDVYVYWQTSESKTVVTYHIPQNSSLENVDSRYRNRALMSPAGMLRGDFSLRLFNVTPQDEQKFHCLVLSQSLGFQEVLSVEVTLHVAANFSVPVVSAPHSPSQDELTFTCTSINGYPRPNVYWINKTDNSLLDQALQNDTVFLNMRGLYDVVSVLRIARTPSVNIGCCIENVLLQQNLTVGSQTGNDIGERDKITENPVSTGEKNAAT
- test-method-notes: capture ELISA, B7-H2mIg coated, anti-human IgG-HRP detection

Record summary for ICOSIg mutant Asp64Ser (Fc fusion, Built on ICOSIg cDNA; not shown: CH2-CH3 portion of human IgG1) EINGSANYEMFIFHNGGVQILCKYPDIVQQFKMQLLKGGQILCSLTKTKGSGNTVSIKSLKFCHSQLSNNSVSFFLYNLDHSHANYYFCNLSIFDPPPFKVTLTGGYLHIYESQLCCQLK : reported B7-H2 Binding (specific binding activity as percentage of ICOSIg) = 6 % of wild type ICOSIg

Record summary for ICOSIg mutant Asp115Ser (Fc fusion, Built on ICOSIg cDNA; not shown: CH2-CH3 portion of human IgG1) EINGSANYEMFIFHNGGVQILCKYPDIVQQFKMQLLKGGQILCDLTKTKGSGNTVSIKSLKFCHSQLSNNSVSFFLYNLDHSHANYYFCNLSIFSPPPFKVTLTGGYLHIYESQLCCQLK : reported B7-H2 Binding (specific binding activity as percentage of ICOSIg) = < 0.1 % of wild type ICOSIg

Record summary for ICOSIg homologue replacement mutant RP64-78 (Fc fusion, not shown: CH2-CH3 portion of human IgG1) EINGSANYEMFIFHNGGVQILCKYPDIVQQFKMQLLKGGQILCVVYGNYSQQLQVYSKSLKFCHSQLSNNSVSFFLYNLDHSHANYYFCNLSIFDPPPFKVTLTGGYLHIYESQLCCQLK : reported B7-H2 Binding (specific binding activity as percentage of ICOSIg) = < 0.1 % of wild type ICOSIg

Record summary for ICOSIg mutant Pro117Ser (Fc fusion, Built on ICOSIg cDNA; also called Pro117Ser mutant; not shown: CH2-CH3 portion of human IgG1) EINGSANYEMFIFHNGGVQILCKYPDIVQQFKMQLLKGGQILCDLTKTKGSGNTVSIKSLKFCHSQLSNNSVSFFLYNLDHSHANYYFCNLSIFDPSPFKVTLTGGYLHIYESQLCCQLK : reported B7-H2 Binding (specific binding activity as percentage of ICOSIg) = < 0.1 % of wild type ICOSIg

Record summary for ICOSIg mutant Phe119Ser (Fc fusion, Built on ICOSIg cDNA; not shown: CH2-CH3 portion of human IgG1) EINGSANYEMFIFHNGGVQILCKYPDIVQQFKMQLLKGGQILCDLTKTKGSGNTVSIKSLKFCHSQLSNNSVSFFLYNLDHSHANYYFCNLSIFDPPPSKVTLTGGYLHIYESQLCCQLK : reported B7-H2 Binding (specific binding activity as percentage of ICOSIg) = < 0.1 % of wild type ICOSIg

Record summary for ICOSIg mutant Ser76Glu (Fc fusion, Built on ICOSIg cDNA; also called Ser76Glu mutant; Ser76Glu protein; not shown: CH2-CH3 portion of human IgG1) EINGSANYEMFIFHNGGVQILCKYPDIVQQFKMQLLKGGQILCDLTKTKGSGNTVEIKSLKFCHSQLSNNSVSFFLYNLDHSHANYYFCNLSIFDPPPFKVTLTGGYLHIYESQLCCQLK : reported B7-H2 Binding (specific binding activity as percentage of ICOSIg) = 300 % of wild type ICOSIg
